# System: HeLa
# Test protocol: Cytotoxicity against human HeLa cells assessed as reduction in cell viability after 24 hrs by MTT assay
# Format: functional, cell-based
Result type: Activity

Answered cases to consult:
N#Cc1c(F)c(F)c(C#N)c2c1Oc1ccccc1O2	Dose-dependent effect
N#Cc1cc2c(cc1C#N)Oc1ccccc1O2	Dose-dependent effect
N#Cc1c(F)c(F)c2c(c1C#N)Oc1ccccc1O2	Dose-dependent effect
CCN(CC)c1c(F)c(C#N)c2c(c1C#N)Oc1ccccc1O2	Dose-dependent effect
N#Cc1cc2c(cc1C#N)Oc1cc(Br)ccc1O2	Dose-dependent effect

Exercise: Data request, read-out Activity, for COC(=O)c1cccc2c1Oc1c(C#N)c(F)c(F)c(C#N)c1O2
Solution: Dose-dependent effect

Exercise: Entry under review: COc1c(F)c(C#N)c2c(c1C#N)Oc1ccccc1O2 . Reported Activity?
Solution: Dose-dependent effect

Exercise: So what's the measured Activity for this one? COC(=O)c1ccc2c(c1)Oc1c(C#N)c(F)c(F)c(C#N)c1O2
Solution: Dose-dependent effect

---

# Species: Bos taurus
# Test protocol: Binding affinity to calf thymus DNA assessed as intrinsic binding constant by UV spectrophotometry
logKb values, listed per item
Answer as a number with no unit attached.

COc1c(F)c(C#N)c2c(c1C#N)Oc1ccccc1O2	5.38
CCN(CC)c1c(F)c(C#N)c2c(c1C#N)Oc1ccccc1O2	5.5
COC(=O)c1cccc2c1Oc1c(C#N)c(F)c(F)c(C#N)c1O2	6

Switching to the query record.
Exercise: Please give the measured logKb for this compound: COC(=O)c1ccc2c(c1)Oc1c(C#N)c(F)c(F)c(C#N)c1O2
Solution: 5.39
